experiment: yeast display, Sf9 membrane polyspecificity reagent, FACS + sequencing; frameworks hold sequencing errors
measurement-label: polyreactivity (PSR sort gate)

Look over these answered cases.
QVQLVESGGGLVQAGGSLRLSCAASGSTFSSYAMGWYRQAPGKERELVAAISSSGVRTYYADSVKGRFTISRDNAKNSVYLQMNSLKPEDTAVYYCKLTLLTVNRTGMTTWGQGTQVTVSS ... high polyreactivity
QVQLVESGGGLVQAGGSLRLSCAASGLTFNPNAMGWYRQAPGKERDLVADITYRGGSTYYADSEKGRFTISRDNAKNTDYLQMYSLKPEDTAVYYCAAQYIGWHLYWYDYWGQGTQVTVSS ... low polyreactivity
QVQLVESGGGLVQAGCSLRLSCAASGRTFLLYAMGWYRQAPGKERELVAAITWGGGSTYYADSVKGRFTISRDNAKNIVYLQMNCLKPEDTAVYYCNAYYWSRMDYWGQGTQVTVSS ... low polyreactivity
QVQLVESGGRLVQAGGTLRLSCAASGNIFFVYDMGWYRQPPGKESELVAAISWSGGSTYADSVKGRFTISRDNAKNTVYLQMNSLKPEDTAVYYCAADVAYVEYDYWGQGTQVTVSS ... low polyreactivity

# next sequence below
Prompt: Reported polyreactivity (PSR sort gate) for `QVQLVESCGGLVQAGGSLRLSCAASGSTYAMGWYRQAPGKERELVASITSRGGSTYYADSVKGRFTISRDNAKNTVYLQMNSLKPEDTAVYYCNRVYRYPYNYWGQGTQVTVSS` : what is it?
Completion: high polyreactivity

Data provenance: the nanobody polyreactivity screen of Harvey et al. (2022)
